Molecular target: human CaSR (Homo sapiens, UniProt P41180)
Construct: the full length cDNA encoding CaSR was obtained first as three divisional parts; expressed in transfected cells
Sequence (P41180 20-1078): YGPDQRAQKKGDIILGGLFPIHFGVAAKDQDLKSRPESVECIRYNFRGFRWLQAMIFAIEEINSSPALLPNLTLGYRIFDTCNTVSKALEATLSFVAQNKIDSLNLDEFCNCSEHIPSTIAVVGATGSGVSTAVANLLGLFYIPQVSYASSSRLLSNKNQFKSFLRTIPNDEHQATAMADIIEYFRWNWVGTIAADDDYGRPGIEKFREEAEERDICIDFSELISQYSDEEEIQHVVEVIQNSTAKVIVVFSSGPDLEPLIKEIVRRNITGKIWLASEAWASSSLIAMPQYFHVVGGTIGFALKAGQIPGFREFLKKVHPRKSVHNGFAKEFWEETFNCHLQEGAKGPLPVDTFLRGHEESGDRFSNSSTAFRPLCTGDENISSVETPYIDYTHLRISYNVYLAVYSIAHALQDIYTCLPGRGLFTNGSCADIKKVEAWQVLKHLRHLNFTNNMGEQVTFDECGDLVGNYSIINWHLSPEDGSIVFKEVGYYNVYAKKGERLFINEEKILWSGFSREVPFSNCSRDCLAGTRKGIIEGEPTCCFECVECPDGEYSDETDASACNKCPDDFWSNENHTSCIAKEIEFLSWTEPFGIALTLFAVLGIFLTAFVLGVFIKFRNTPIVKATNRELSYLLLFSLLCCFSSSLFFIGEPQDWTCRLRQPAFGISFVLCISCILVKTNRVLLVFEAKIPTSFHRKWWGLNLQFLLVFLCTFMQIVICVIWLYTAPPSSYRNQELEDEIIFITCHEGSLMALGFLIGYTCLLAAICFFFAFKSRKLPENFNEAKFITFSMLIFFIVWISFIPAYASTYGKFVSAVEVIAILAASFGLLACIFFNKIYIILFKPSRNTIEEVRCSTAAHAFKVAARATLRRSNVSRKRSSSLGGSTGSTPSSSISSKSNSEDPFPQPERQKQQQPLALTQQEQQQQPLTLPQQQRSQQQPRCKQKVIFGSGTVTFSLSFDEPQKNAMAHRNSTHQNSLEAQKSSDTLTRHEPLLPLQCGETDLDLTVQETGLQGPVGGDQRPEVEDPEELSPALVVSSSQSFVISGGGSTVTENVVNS
Test: CaSR activating effect, in vitro test using CaSR expressing cells (intracellular calcium, Fura-2/FDSS)
Format: cell-based
Conditions: CHO cells stably expressing human CaSR and Gα16; change in intracellular calcium concentration
Where a name gives a salt, the structure may show the parent alone.
RECORDED_ENDPOINT: EC50 (µM)

>>> print(df.to_string())
                                   compound  recorded_endpoint  obs_value
0  C[C@@H](N[C@@H]1CCCN(c2ccccn2)C1)c1cccc2ccccc12               EC50       0.42

(P) C[C@@H](N[C@H]1CCN(C(=O)Cc2ccccc2C(F)(F)F)C1)c1cccc2ccccc12
(Q) C[C@@H](N[C@H]1CCN(c2ccc(C(=O)O)cc2)C1)c1cccc2ccccc12 [Example 3.001, hydrochloride]
(R) C[C@@H](N[C@H]1CCN(c2ccc(S(=O)(=O)NCCN(C)C)cc2)C1)c1cccc2ccccc12
Query: Write the entries in order, lowest recorded EC50 first. Return the labels ranked in the requested order, please.
Response: R, Q, P
(R: 0.018 µM, Q: 0.29 µM, P: 0.42 µM)
